We begin with a simple list: items and their reported pIC50.
Molecular target: CDK8/Cyclin C (Homo sapiens, UniProt P49336)
Sequence (P49336 whole entry): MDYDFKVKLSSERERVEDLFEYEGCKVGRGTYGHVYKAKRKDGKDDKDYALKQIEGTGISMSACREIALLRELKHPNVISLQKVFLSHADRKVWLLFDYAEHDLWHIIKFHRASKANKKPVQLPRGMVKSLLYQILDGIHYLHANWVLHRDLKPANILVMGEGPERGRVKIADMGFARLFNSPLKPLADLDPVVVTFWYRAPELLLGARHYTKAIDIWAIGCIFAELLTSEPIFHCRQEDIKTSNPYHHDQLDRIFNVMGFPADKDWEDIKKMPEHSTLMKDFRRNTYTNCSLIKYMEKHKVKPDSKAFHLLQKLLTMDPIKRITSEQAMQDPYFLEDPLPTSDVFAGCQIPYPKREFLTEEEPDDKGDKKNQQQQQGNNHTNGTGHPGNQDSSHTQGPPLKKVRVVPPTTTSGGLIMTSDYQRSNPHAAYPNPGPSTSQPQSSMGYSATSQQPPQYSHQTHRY
Sequence (P24863 whole entry, further chain): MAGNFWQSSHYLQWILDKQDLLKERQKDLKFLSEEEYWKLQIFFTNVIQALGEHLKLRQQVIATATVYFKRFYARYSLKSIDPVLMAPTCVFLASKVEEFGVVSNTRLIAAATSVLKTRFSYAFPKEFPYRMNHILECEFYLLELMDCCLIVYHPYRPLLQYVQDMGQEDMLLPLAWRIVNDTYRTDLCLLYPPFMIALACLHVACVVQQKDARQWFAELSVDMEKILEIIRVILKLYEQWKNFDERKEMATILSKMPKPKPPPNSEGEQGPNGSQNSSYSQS
Assay: Inhibition of Alexa fluor 647 labeled kinase tracer binding to human CDK8/cyclin C incubated for 1 hr by FRET based LanthaScreen Eu-Kinase binding assay
pIC50: −log10 of the molar value.

Please review the following examples before continuing.
>>> df
                      smiles_representation  data_value
0  CCOc1ccc(C(=O)Oc2cncc(C3CCN(c4ccccc4)CC3)c2)cc1      < 4.60
1  CCOc1ccc(C(=O)Oc2cncc(NC(=O)Nc3ccccc3)c2)cc1      < 4.60

Now look at this one.
Exam item: Request the reported pIC50 associated with CCOc1ccc(C(=O)Oc2cncc(-c3cnn(-c4ccccc4)c3)c2)cc1
Marked response: < 4.60
